A short record of pIC50 observed with GST P1-1 (Homo sapiens) follows.
Sequence (P09211 2-210 limits assumed): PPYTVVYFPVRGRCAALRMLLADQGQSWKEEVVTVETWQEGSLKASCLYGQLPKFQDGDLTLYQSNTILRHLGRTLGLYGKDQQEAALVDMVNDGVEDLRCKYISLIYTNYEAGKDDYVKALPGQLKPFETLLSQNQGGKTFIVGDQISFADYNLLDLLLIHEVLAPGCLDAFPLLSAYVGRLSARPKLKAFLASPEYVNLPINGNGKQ
In textbook form, pIC50 equals minus log to base ten of the concentration in mol/L.

- MOLECULE: "O=[N+]([O-])c1ccc(Sc2ccc(O)cc2)c2nonc12 [(4)]"
  pIC50: 6.15
- MOLECULE: "O=[N+]([O-])c1ccc(Sc2ncc[nH]2)c2nonc12 [(3)]"
  pIC50: 5.20

INPUT: Provide the documented pIC50 with GST P1-1 (Homo sapiens) as the system for O=C(O)CCSc1ccc([N+](=O)[O-])c2nonc12 [(5)]
OUTPUT: 5.24

----------
- Tested on: HepG2 (human hepatic carcinoma)
- MEASUREMENT PROTOCOL: SRB cell growth test
- Assay type: cell-based
- CONDITION NOTES: HepG2, read-out: Activity trials on cell lines - IC50 (50% inhibition of cell growth), HepG2, 48 hours
Threshold check on IC50: strictly below 20 µM is 1; on or above 20 µM is -1.

- STRUCTURE NOTATION: "O=C(O)CCSc1ccc([N+](=O)[O-])c2nonc12"
  ANSWER LABEL: -1
- STRUCTURE NOTATION: "O=[N+]([O-])c1ccc(NCCCCCCO)c2nonc12"
  ANSWER LABEL: -1
- STRUCTURE NOTATION: "O=[N+]([O-])c1ccc(SCCCCCCO)c2nonc12"
  ANSWER LABEL: 1

INPUT: Does the reported IC50 of O=[N+]([O-])c1ccc(SCCCCO)c2nonc12 stay below 20 µM?
OUTPUT: 1

INPUT: Bench note: check whether O=[N+]([O-])c1ccc(Sc2ncc[nH]2)c2nonc12 shows IC50 below 20 µM
OUTPUT: 1

INPUT: Dear reviewer, please state whether O=[N+]([O-])c1ccc(Sc2ccc(O)cc2)c2nonc12 has IC50 strictly beneath 20 µM.
OUTPUT: 1

----------
# IC50 annotations
- ASSAYED TARGET: GST M2-2 (Homo sapiens, UniProt P28161)
- Sequence (P28161 whole entry): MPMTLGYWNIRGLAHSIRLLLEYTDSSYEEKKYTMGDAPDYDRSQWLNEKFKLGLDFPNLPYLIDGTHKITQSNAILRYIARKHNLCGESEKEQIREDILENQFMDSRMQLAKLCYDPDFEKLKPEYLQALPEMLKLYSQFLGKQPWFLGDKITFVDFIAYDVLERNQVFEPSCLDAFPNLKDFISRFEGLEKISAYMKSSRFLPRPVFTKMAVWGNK
Write the value in nM as a bare number.

// known answers, use as guide
- STRUCTURE NOTATION: "O=[N+]([O-])c1ccc(SCCCCO)c2nonc12"
  RESULT UNIT: "nM"
  IC50: 30
- STRUCTURE NOTATION: "O=C(O)CCSc1ccc([N+](=O)[O-])c2nonc12"
  RESULT UNIT: "nM"
  IC50: 310
- STRUCTURE NOTATION: "O=[N+]([O-])c1ccc(Sc2ncc[nH]2)c2nonc12"
  RESULT UNIT: "nM"
  IC50: 10
- STRUCTURE NOTATION: "O=[N+]([O-])c1ccc(Sc2ccc(O)cc2)c2nonc12"
  RESULT UNIT: "nM"
  IC50: 30

Let us move to another entry and its IC50.
INPUT: May I ask what IC50 has been recorded for O=[N+]([O-])c1ccc(SCCCCCCO)c2nonc12 ?
OUTPUT: 10
